assay: AUClast in rat at 10 mg/kg, po measured after 24 hrs by HPLC-UV method; format: ADME, organism-based; set-up: dose 10 mg/kg, time 24 hrs, route po; conditions: in vivo
Quantity measured: AUC(0-t) at 24 h

Query :: Return the recorded AUC(0-t) at 24 h value; entry: `CN1C(=S)N(C2CCCCC2)C(=O)/C1=C\c1ccc(N(C)CCO)cc1`
Result :: 1310 ng·h/mL

* * *

test: Cmax in rat plasma at 10 mg/kg, po measured after 24 hrs by HPLC-UV method; type: ADME, organism-based; design: time 24 hrs, dose 10 mg/kg, route po
Quantity measured: Cmax (ng/mL)
# value in ng/mL; strip the unit string

Query :: Report Cmax, nothing else, for this compound: `CN1C(=S)N(C2CCCCC2)C(=O)/C1=C\c1ccc(N(C)CCO)cc1`
Result :: 609
